Just for reference, PubChem BioAssay (NCI) is where these values come from.

tested on: ACHN renal; experiment: NCI-60 one-dose screen, 48 h (100 = growth as untreated, 0 = no growth, -100 = all killed); conditions: 10 µM unless noted
Compounds without any hit were thinned out: in the full panel of roughly 83,000, 20% have a hit.
# note: boundary value 90% maps to not met; growth below it maps to met

Problem: Say whether its growth is strictly beneath 90%. Entry: O=C1C=C(N2CC2)c2ccccc2C1=O
Solution: met

Problem: Say whether its growth is strictly beneath 90%. Entry: O=C(CCCN1CCC2(CC1)C(=O)NCN2c1ccccc1)c1ccc(F)cc1
Solution: met

Problem: Say whether its growth is strictly beneath 90%. Entry: COc1cc(C2C3=C(CCCC3=O)N(CCO)c3cc4c(cc32)CCC4)cc(OC)c1OC (stereo unspecified)
Solution: not met

Problem: Say whether its growth is strictly beneath 90%. Entry: CCCCOC(N)=O
Solution: not met

Problem: Say whether its growth is strictly beneath 90%. Entry: COc1cc(/C=C\[N+](=O)[O-])ccc1OCc1ccccc1
Solution: met

Problem: Say whether its growth is strictly beneath 90%. Entry: CNC(=O)Oc1ccc(Cl)cc1SSc1cc(Cl)ccc1OC(=O)NC
Solution: met

###

tested on: HCT-15 colon; assay: NCI-60 one-dose screen, 48 h; conditions: 10 µM unless noted
This is part of a sample that, as a whole, favours compounds with a hit. Of some 83,000 tested, about 20% had one in any assay. Activity calls are given as the source filed them. Rule for the calls: active = growth percent below 10; inactive = the rest.
Pick one: class 1 (active), class 0 (inactive)

Problem: Would you mind telling me which call this test gave Cc1ccc(NC2=N[C@]34CC(=O)CC[C@]3(C)[C@H]3CC[C@]5(C)C(=O)CC[C@H]5[C@@H]3C[C@@H]4S2)c(C)c1 ?
Solution: class 1

Problem: Would you mind telling me which call this test gave Cc1cc2c(cc1-c1ccnc(/C=C/C(=O)O)c1)C(C)(C)CCC2(C)C ?
Solution: class 0

Problem: Would you mind telling me which call this test gave CCOC(=O)c1ccccc1C(=O)OCC ?
Solution: class 0

Problem: Would you mind telling me which call this test gave O=C=Nc1ccc(Br)cc1 ?
Solution: class 0

Problem: Would you mind telling me which call this test gave CC[C@H](C)[C@H](NC(=O)c1cnccn1)C(=O)N(C)[C@H](C[C@@H](OC(C)=O)c1nc(C(=O)N[C@@H](Cc2ccccc2)C[C@H](C)C(=O)OC)cs1)C(C)C ?
Solution: class 1

Problem: Would you mind telling me which call this test gave O=[N+]([O-])c1cc(Cl)c(Cl)c([N+](=O)[O-])c1Cl ?
Solution: class 1

Problem: Would you mind telling me which call this test gave CC[C@H](C)[C@H](NC(=O)CN(C)C)C(=O)N(C)[C@H](C[C@@H](OC(C)=O)c1nc(C(=O)NC23C4C5C2C2C3C4C52C(=O)OC)cs1)C(C)C (some centres not stated) ?
Solution: class 0

Problem: Would you mind telling me which call this test gave N#CC(C#N)=C(C#N)C#N ?
Solution: class 0

Problem: Would you mind telling me which call this test gave COC12CC3(C)C(C4=CC(=O)OC4)CCC3(O)C3CCC4=CC(=O)CCC4(CO1)C32 (configuration not stated) ?
Solution: class 0

Problem: Would you mind telling me which call this test gave CC1=C(C)C(=O)O[C@@H]([C@](C)(O)[C@]2(O)CC[C@@]3(O)[C@@H]4C[C@H]5O[C@]56CC=CC(=O)[C@]6(C)[C@H]4CC[C@]23C)C1 ?
Solution: class 1

Problem: Would you mind telling me which call this test gave COc1ccc2c(c1)c(-c1nc(-c3c[nH]c4ncccc34)cs1)cn2CCCCN1CCOCC1 ?
Solution: class 1

Problem: Would you mind telling me which call this test gave C#COc1cccc(Nc2ncnc3cc(NC(=O)CF)ccc23)c1 ?
Solution: class 0
